- EXPERIMENTAL_SYSTEM: SC (secretory component, extracellular portion of the poly Ig receptor) (Homo sapiens)
- Construct: “secretory component”—the extracellular portion of the poly Ig receptor; from tissue; host or cells: human colostrum
- Sequence (P01833 19-603 limits assumed): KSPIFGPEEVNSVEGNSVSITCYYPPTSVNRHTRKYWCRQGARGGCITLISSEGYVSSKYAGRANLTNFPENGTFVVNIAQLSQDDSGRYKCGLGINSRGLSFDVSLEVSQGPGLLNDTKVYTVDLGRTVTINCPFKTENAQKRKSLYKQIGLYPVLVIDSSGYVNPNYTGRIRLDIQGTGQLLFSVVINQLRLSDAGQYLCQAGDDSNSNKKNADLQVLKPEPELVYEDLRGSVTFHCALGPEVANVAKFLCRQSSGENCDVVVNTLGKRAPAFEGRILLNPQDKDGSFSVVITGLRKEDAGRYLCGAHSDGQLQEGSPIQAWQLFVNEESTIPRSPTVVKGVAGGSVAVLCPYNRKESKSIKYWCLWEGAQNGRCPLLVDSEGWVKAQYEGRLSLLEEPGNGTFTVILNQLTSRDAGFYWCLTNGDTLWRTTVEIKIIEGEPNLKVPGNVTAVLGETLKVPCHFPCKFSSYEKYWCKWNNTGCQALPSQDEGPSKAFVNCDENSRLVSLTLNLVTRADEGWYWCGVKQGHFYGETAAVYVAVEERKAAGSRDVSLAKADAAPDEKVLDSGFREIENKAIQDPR
- ASSAY_PROTOCOL: ELISA of phage binding to immobilised SC
- CONDITION_DESCRIPTION: immobilised colostrum SC
MEASURED_PARAMETER: SC binding of single phage clones (ELISA)

CVVWMGFQQVC: SC binding
CQDPICFCGADGACYCTSRNC: positive
CAWHYRFCGAAHSADGACREVFLVC: positive
CWTSGARWRLC: SC binding
